# subject.of.test: Multidrug efflux pump subunit AcrB (Escherichia coli (strain K12))
# assay.comment: Inhibition of AcrB in Escherichia coli BW25113 assessed as potentiation of tetraphenylphosphonium induced antibacterial activity by measuring tetraphenylphosphonium MIC at 128 ug/ml measured after 18 hrs by checkerboard titration method (reference value: 1024 ug/ml)
# particulars: dose 128.0 µg/ml
What MIC was measured for each of the following?
Quote the value and follow it with the unit of measurement.

Query: Hello, please tell me recorded MIC for this one: O=C(NCCc1ccc(O)c(O)c1)c1ccc(C(F)(F)F)cc1
Response: 1020 µg/mL

Query: Hello, please tell me recorded MIC for this one: C[C@H](Cc1ccc(O)c(O)c1)[C@@H](C)Cc1ccc(O)c(O)c1
Response: 128 µg/mL

Query: Hello, please tell me recorded MIC for this one: Oc1ccc(CCCCc2ccc(O)c(O)c2)cc1O
Response: 512 µg/mL

Query: Hello, please tell me recorded MIC for this one: O=C(NCCc1ccc(O)c(O)c1)c1ccc(Br)cc1
Response: 1020 µg/mL

Query: Hello, please tell me recorded MIC for this one: Oc1ccc(CCCc2ccc(O)c(O)c2)cc1O
Response: 512 µg/mL

Query: Hello, please tell me recorded MIC for this one: Nc1ccccc1C(=O)NCCc1ccc(O)c(O)c1
Response: 512 µg/mL

Query: Hello, please tell me recorded MIC for this one: Oc1ccc(CCCCc2cc(O)c(O)c(O)c2)cc1O
Response: 256 µg/mL

Query: Hello, please tell me recorded MIC for this one: Oc1ccc(CCCCc2ccccc2O)cc1O
Response: 512 µg/mL

Query: Hello, please tell me recorded MIC for this one: Nc1ccc(C(=O)NCCc2ccc(O)c(O)c2)cc1
Response: 512 µg/mL

Query: Hello, please tell me recorded MIC for this one: O=C(NCCc1ccc(O)c(O)c1)c1cc(O)c(O)c(O)c1
Response: 256 µg/mL

Query: Hello, please tell me recorded MIC for this one: O=C(NCCc1ccc(O)c(O)c1)c1ccccc1O
Response: 512 µg/mL

Query: Hello, please tell me recorded MIC for this one: Oc1ccc(CCCCCCc2ccc(O)c(O)c2)cc1O
Response: 512 µg/mL

* * *

# subject.of.test: Multidrug efflux pump subunit AcrB (Escherichia coli (strain K12))
# Sequence (whole entry): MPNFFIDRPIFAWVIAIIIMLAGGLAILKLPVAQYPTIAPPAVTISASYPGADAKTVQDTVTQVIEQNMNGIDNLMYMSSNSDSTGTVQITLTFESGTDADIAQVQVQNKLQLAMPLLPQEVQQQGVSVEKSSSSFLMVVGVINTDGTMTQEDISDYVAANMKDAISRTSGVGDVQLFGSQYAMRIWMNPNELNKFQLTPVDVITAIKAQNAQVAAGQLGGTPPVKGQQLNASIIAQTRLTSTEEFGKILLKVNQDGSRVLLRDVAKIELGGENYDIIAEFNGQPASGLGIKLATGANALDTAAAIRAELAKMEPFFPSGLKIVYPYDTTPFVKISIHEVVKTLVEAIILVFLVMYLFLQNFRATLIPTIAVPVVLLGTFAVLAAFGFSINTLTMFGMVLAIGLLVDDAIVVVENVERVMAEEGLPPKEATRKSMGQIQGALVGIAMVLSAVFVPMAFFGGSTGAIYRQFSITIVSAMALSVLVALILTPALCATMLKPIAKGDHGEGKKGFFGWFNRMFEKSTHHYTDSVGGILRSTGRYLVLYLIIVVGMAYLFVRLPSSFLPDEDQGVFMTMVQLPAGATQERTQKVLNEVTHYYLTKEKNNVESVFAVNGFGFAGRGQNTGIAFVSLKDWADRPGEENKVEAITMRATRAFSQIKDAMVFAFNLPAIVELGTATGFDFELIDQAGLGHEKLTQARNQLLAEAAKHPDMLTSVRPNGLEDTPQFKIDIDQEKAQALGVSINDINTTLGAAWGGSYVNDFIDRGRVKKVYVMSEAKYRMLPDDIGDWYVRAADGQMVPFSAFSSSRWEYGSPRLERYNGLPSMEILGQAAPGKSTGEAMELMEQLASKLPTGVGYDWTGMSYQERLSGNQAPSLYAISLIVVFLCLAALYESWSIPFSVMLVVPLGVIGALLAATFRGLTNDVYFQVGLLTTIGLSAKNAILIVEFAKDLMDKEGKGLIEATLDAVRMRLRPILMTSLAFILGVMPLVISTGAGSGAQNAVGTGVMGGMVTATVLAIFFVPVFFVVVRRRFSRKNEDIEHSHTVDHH
# assay.comment: Inhibition of AcrB in Escherichia coli BW25113 assessed as potentiation of tetraphenylphosphonium induced antibacterial activity by measuring tetraphenylphosphonium MIC at 16 ug/ml measured after 18 hrs by checkerboard titration method (reference value: 1024 ug/ml)
# particulars: dose 16.0 µg/ml
What MIC was measured for each of the following?
Quote the value and follow it with the unit of measurement.

Query: Hello, please tell me recorded MIC for this one: Oc1ccc(CCCc2ccc(O)c(O)c2)cc1O
Response: 1020 µg/mL

Query: Hello, please tell me recorded MIC for this one: Oc1ccc(CCCCc2cc(O)c(O)c(O)c2)cc1O
Response: 512 µg/mL

Query: Hello, please tell me recorded MIC for this one: O=C(NCCc1ccc(O)c(O)c1)c1ccc(Br)cc1
Response: 1020 µg/mL

Query: Hello, please tell me recorded MIC for this one: O=C(NCCc1ccc(O)c(O)c1)c1cc(O)c(O)c(O)c1
Response: 1020 µg/mL

Query: Hello, please tell me recorded MIC for this one: Oc1ccc(CCCCc2ccccc2O)cc1O
Response: 512 µg/mL
